The reported measurements were obtained from PubChem BioAssay (NCATS).

experiment: Cell Viability - LYMP1-002 - Assay at 40 hr (AID 994); settings: LYMP1-002 lymphoblastoid cell viability; series mostly up to 92.2 µM; also: nearly all actives have a fitted effect of over 60% in size
Inconclusive results are not listed. Activity calls are given as the source filed them. Calls follow the shape of the dose curve; as a rule, active = well fitted cell-killing curve with a large enough effect; inconclusive = small, poorly fitted or top-dose-only effect; inactive = flat fitted curve, though single readings scatter.
PROPERTY LABEL: outcome

COMPOUND	DATA VALUE
Cc1ccc(Br)cc1	inactive
O=C(O[C@@H](C(=O)O)[C@@H](OC(=O)c1ccccc1)C(=O)O)c1ccccc1	inactive
CC(C)C=O	inactive
Cc1ccc2ncccc2c1	inactive
Cc1ccc(Cl)cc1	inactive
CC(=O)CCc1ccccc1	inactive
COc1ccc(N)c(C)c1	inactive
C=CCOC(=O)COCCC(C)C	inactive
O=[N+]([O-])c1cc(C(F)(F)F)ccc1Cl	inactive
Cc1cccc(C)c1O	inactive
N#Cc1ccccc1	inactive
O=Cc1cccc(Br)c1	inactive
CCN(Cc1ccccc1)c1ccccc1	inactive
Clc1cc(Cl)cc(Cl)c1	inactive
C=C(C)OC(C)=O	inactive
CC1CCCO1 (configuration not stated)	inactive
O=C(O)c1ccc(CO)o1	inactive
